Target sequence: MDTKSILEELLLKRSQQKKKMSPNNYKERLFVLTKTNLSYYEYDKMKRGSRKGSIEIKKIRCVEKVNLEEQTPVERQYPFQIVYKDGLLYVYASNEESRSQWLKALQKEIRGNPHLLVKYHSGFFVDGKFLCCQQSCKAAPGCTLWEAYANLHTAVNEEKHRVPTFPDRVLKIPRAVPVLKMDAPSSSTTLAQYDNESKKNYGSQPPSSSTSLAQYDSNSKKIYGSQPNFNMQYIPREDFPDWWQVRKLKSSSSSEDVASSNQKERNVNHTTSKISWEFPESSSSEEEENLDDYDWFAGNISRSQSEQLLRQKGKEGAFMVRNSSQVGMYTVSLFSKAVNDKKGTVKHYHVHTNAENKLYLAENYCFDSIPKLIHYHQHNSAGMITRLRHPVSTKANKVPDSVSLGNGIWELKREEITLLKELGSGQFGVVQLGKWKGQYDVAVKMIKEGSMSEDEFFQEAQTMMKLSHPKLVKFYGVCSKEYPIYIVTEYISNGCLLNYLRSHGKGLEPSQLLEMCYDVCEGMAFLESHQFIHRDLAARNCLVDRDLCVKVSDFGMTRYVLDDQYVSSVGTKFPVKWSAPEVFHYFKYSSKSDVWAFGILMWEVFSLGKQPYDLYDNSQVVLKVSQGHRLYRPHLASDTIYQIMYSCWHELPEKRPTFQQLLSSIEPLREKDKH
measured.parameter: IC50 (nM)
Use nM as the unit, but write only the number.

compound | IC50 / nM
CC(C)(C)c1ccc(C(=O)NC2(c3ccc(-c4ccnc5[nH]nc(N[C@H]6CC[C@H](O)CC6)c45)cc3)CC2)cc1 [Compound 22] | 6470
CC(C)(C)c1cccc(C(=O)NCc2ccc(-c3ccnc4[nH]nc(N[C@@H]5CCNC5)c34)cc2F)c1 [Example 62] | 2140

response.value for CCNC(=O)N1C[C@H](Nc2n[nH]c3nccc(-c4ccc(CNC(=O)c5nc(C(C)(C)C)no5)c(F)c4)c23)CC[C@@H]1C [Example 209] (field: IC50) = 2200

// C[C@@H]1[C@H](Nc2n[nH]c3nccc(-c4ccc(CNC(=O)c5cc(C(C)(C)N)on5)c(F)c4)c23)CCCN1C(=O)N(C)C [Example 317] : IC50 value = 6550

According to the records, this compound CC(C)c1noc(C(=O)N[C@H](C)c2ccc(-c3ccnc4[nH]nc(N5CCS(=O)(=O)CC5)c34)cc2)n1 [Example 405] displays IC50 of 3300

Lab note: measured IC50 of C[C@@H](NC(=O)c1nc(C(C)(C)C)no1)c1ccc(-c2ccnc3[nH]nc(N4CCC(NS(C)(=O)=O)CC4)c23)cc1 [Example 396] was 1190

* * *

Protein target, amino acids: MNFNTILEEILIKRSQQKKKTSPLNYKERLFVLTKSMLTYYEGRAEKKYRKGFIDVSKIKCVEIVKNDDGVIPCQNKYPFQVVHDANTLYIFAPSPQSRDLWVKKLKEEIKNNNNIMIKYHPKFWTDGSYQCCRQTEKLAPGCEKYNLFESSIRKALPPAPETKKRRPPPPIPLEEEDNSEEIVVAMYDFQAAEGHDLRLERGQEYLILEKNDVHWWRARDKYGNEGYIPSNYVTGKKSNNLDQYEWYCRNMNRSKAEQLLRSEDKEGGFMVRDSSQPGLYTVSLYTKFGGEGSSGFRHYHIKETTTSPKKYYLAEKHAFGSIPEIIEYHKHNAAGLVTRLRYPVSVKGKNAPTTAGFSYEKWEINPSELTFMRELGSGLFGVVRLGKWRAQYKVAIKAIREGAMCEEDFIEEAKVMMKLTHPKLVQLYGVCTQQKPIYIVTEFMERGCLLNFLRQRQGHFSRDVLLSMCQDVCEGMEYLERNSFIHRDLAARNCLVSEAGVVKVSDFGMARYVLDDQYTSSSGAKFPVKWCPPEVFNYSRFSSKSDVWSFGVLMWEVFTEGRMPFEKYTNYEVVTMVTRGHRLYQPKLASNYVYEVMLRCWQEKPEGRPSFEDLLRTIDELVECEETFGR
IC50 listing for selected compounds.
Please reply with the bare figure in µM and do not write the unit itself.

Solved entries:
compound | observed.value
CC(C)(C)c1nc(C(=O)NCc2ccc(-c3ccnc4[nH]nc(N[C@@H]5CC[C@H](N)C5)c34)cc2F)no1 | 2.25
CC(C)(C)c1ccc(C(=O)NCc2ccc(-c3ccnc4[nH]nc(N5CC[C@@H](N)C5)c34)cc2F)cc1 | 2.97
C=CC(=O)N(C)[C@@H]1CCN(c2n[nH]c3nccc(-c4ccc(CNC(=O)c5nc(C(C)(C)C)no5)c(F)c4)c23)C1 | 0.00902
CC(C)(C)n1cc(C(=O)NCc2ccc(-c3ccnc4[nH]nc(N[C@@H]5CCNC5)c34)cc2F)cn1 | 8.72
C[C@H]1CC[C@@H](Nc2n[nH]c3nccc(-c4ccc(CNC(=O)c5nc(C(C)(C)C)no5)c(F)c4)c23)CN1C(=O)CO | 0.291

Measured IC50, C=CC(=O)N[C@H]1CC[C@@H](Nc2n[nH]c3nccc(-c4ccc(CNC(=O)c5noc(C(C)(C)C)n5)c(F)c4)c23)C1 : 0.0585

Record C[C@H]1CC[C@@H](Nc2n[nH]c3nccc(-c4ccc(CNC(=O)c5nc(C(C)(C)C)no5)c(F)c4)c23)CN1C1COC1 , field IC50: 2.27

Reference for the values: patent US20180194762A1
